Test system: S. cerevisiae BY4741 (wild-type), vegetative growth in YPD
Test: growth sensitivity score (doubling time z-score vs DMSO controls); higher = slower growth, strongly negative scores also mark growth inhibition (complete suppression), active = hit call of the paper
Settings: stock concentration (mM, diluted 1:100): 10
Structures can show the parent of a compound that is named as a salt.
Measured property: growth sensitivity score
Numbers only.

Consider the worked cases shown below.
| Compound | growth sensitivity score |
| --- | --- |
| C[C@]12CC[C@H]3[C@@H](CCC4=CC(=O)CC[C@@]43C)[C@@H]1CC[C@@H]2O | 4.61 |
| Oc1ccc2c3c1O[C@H]1c4[nH]c5ccccc5c4C[C@@]4(O)[C@@H](C2)N(CC2CC2)CC[C@]314 | -1.11 |
| CNCC(O)c1ccc(O)cc1 (configuration not stated) [Synephrine] | -1.07 |

Hello, I would appreciate it if you could give growth sensitivity score for each entry below.
1. CC(C)CC(N(C)C)C1(c2ccc(Cl)cc2)CCC1 (configuration not stated) [Sibutramine hydrochloride]
2. FC(F)(F)c1cccc(N2CCNCC2)c1
3. Cc1nnc2n1-c1ccc(Cl)cc1C(c1ccccc1)=NC2
4. CCCN1C[C@H](CSC)C[C@@H]2c3cccc4[nH]cc(c34)C[C@H]21 [Pergolide mesylate]
5. NC(=O)C[S+]([O-])C(c1ccccc1)c1ccccc1 (configuration not stated)
6. C[C@H]1CCC[C@H](O)CCCCCc2cc(O)cc(O)c2C(=O)O1
7. CN=C1CN(O)C(c2ccccc2)=c2cc(Cl)ccc2=N1 [Chlordiazepoxide]

[reply]
[1.85, 1.25, 0.23, 2.05, -1.13, 1.77, 1.44]

Go through the list and state growth sensitivity score for each entry.
1. COc1ccc2[nH]cc(CCN)c2c1
2. C[C@]12CC[C@H]3[C@@H](CCC4=CC(=O)CC[C@@H]43)[C@@H]1CC[C@@H]2O
3. NCCc1ccccn1
4. N=C(NCc1ccc(Cl)cc1)SCCCc1c[nH]cn1

[reply]
1: 0.09; 2: 2.24; 3: -1.35; 4: 0.09

Look at each compound and report its growth sensitivity score.
1. C#CCN(C)[C@H](C)Cc1ccccc1
2. c1ccc2c3c([nH]c2c1)CNCC3
3. OC1CCCCC1N1CCC(c2ccccc2)CC1 (configuration not stated) [Vesamicol hydrochloride]
4. CCN(C(C)=O)c1cccc(-c2ccnc3c(C#N)cnn23)c1

[reply]
1: 0.07; 2: -1.07; 3: -0.16; 4: -0.43

Quick request: growth sensitivity score for each listed item, please.
1. CCCCC/C=C\C/C=C\C/C=C\C/C=C\CCCC(=O)Nc1ccc(O)cc1
2. CN1C(=O)COc2c(C(=O)NC3CN4CCC3CC4)cc(Cl)cc21 (configuration not stated)
3. c1ccc2c(c1)Nc1ccccc1S2
4. CC(O)(CS(=O)(=O)c1ccc(F)cc1)C(=O)Nc1ccc(C#N)c(C(F)(F)F)c1 (configuration not stated) [Bicalutamide]
5. Oc1ccc2c3c1O[C@H]1[C@@H](O)CC[C@@]4(O)[C@@H](C2)N(CC2CCC2)CC[C@]314

[reply]
2.55
-0.56
5.99
0.66
-0.96

FYI, the data here is from the supplement of paper PMC3414501.
